Reference for the values: PubChem BioAssay (NCI)

Tested on: SK-MEL-28 melanoma
PROCEDURE_DETAILS: NCI-60 one-dose screen, 48 h (100 = growth as untreated, 0 = no growth, -100 = all killed)
CONDITION_DESCRIPTION: 10 µM unless noted
This is part of a sample that, as a whole, favours compounds with a hit. Of some 83,000 tested, about 20% had one in any assay.
With a cut-off of 40%, any growth strictly below it is called yes; any growth meeting it or above is called no.

Past entries and their recorded results:
COMPOUND	DISCRETE_LABEL
COc1ccc(/C=C2\COc3ccc(O)cc3C2=O)cc1	no
c1ccc(CCNc2c3ccccc3nc3ccccc23)cc1	no

--- query ---
Given `CN1CCN(CCOc2ccc(-c3cnc4c(-c5cccc(F)c5F)cnn4c3)cc2)CC1` , is recorded growth strictly lower than 40%?
yes

----------
Tested on: NCI-H522 lung
PROCEDURE_DETAILS: NCI-60 one-dose screen, 48 h
CONDITION_DESCRIPTION: 10 µM unless noted
Compounds without any hit were thinned out: in the full panel of roughly 83,000, 20% have a hit. Active and inactive are the calls of the source. Rule for the calls: active = growth percent below 10; inactive = the rest.
Parameter call: string, one of active, inactive

In [3]: df
Out[3]:
                                   compound  discrete_label
0  CC(=O)ON1CCCC(P(=O)(OCCSC(=O)C(C)(C)C)OCCSC(=O)C(C)(C)C)C1=O (centres undefined)        inactive

Given `C[n+]1ccc(CCc2c[nH]c3ccccc23)cc1` , state the outcome it received in this test.
inactive

Given N#Cc1c(-c2ccccc2)nc(SCC(O)CN2CCOCC2)nc1N1CCOCC1 (centres undefined) , state the outcome it received in this test.
inactive

Given `COc1ccc(C(=O)c2cc3c(N)c(C(=O)Nc4ccccc4)sc3nc2C)cc1` , state the outcome it received in this test.
active

Given `CN1CCN(C(=O)C(C)(C)c2ccc(C(=O)Nc3cn4cc(-c5ccncc5)ccc4n3)cc2)CC1` , state the outcome it received in this test.
active

Given `Cc1ccc(-c2nc(N3CCNCC3)c3oc(-c4ccc(C)cc4)nc3n2)cc1` , state the outcome it received in this test.
inactive

Given `N#C/C(=C\C=C\c1ccc(-c2cc(Cl)ccc2Cl)o1)c1nc2ccccc2s1` , state the outcome it received in this test.
inactive

Given `CC1=C2[C@@H](CC1)[C@]1(C)O[C@@](C3CCCCC3)(C[C@H]1OC(=O)CO)[C@H]2OC(=O)/C=C/c1ccccc1` , state the outcome it received in this test.
inactive

Given `CCN(CC)c1ccc(/C=N/NC(=O)Cc2ccc(Nc3ccnc(C(F)(F)F)c3)cc2)c(O)c1` , state the outcome it received in this test.
inactive

Given `COC(=O)CC[C@@H]1O[C@@H](c2ccc(F)cc2)[C@@H](O)[C@H]1O` , state the outcome it received in this test.
inactive

Given `CN1CCN(CCOc2ccc(-c3cnc4c(-c5cccc(F)c5F)cnn4c3)cc2)CC1` , state the outcome it received in this test.
inactive

Given `Cc1c(CN)cc(-c2ccc(Cl)cc2)n1-c1ccccc1` , state the outcome it received in this test.
inactive

Given `COc1ccc(-c2nc(/C=C3\C(=O)N(C)c4ccccc43)c3ccccn23)cc1` , state the outcome it received in this test.
inactive

----------
System: KM12 colon
PROCEDURE_DETAILS: NCI-60 one-dose screen, 48 h
CONDITION_DESCRIPTION: 10 µM unless noted
Compounds without any hit were thinned out: in the full panel of roughly 83,000, 20% have a hit. Calls of active or inactive are those of the source. How the source made its calls: active means growth percent below 10; inactive means the rest.
Parameter call: string, one of active, inactive

MOLECULE	DISCRETE_LABEL
Cn1cc(-c2csc(-c3cn(CCCN4CCOCC4)c4ccccc34)n2)c2cccnc21	inactive
CCOC(=O)c1[nH]c2c(c1C)-c1[nH]c(=O)c(S(=O)(=O)c3ccccc3)cc1SC2	inactive

Given `Cc1ccc2nc(-c3ccc(C(=O)NNC(=S)Nc4ccccc4)cc3)[nH]c2c1` , state the outcome it received in this test.
inactive

Given `CC1(C)[C@@H](O[C@@H]2OC[C@@H](O[C@@H]3O[C@H](CO)[C@@H](O)[C@H](O)[C@H]3O[C@@H]3OC[C@@H](O)[C@H](O)[C@H]3O)[C@H](O)[C@H]2O[C@@H]2O[C@H](CO)[C@@H](O)[C@H](O)[C@H]2O)CC[C@]2(C)[C@H]3CC[C@]45OC[C@@]6(CC[C@](C)(C=O)C[C@H]64)[C@H](O)C[C@@]5(C)[C@]3(C)CC[C@@H]12` , state the outcome it received in this test.
active

Given CCO/C=N/C1=C(C#N)C(c2ccc(F)cc2)c2sc3c(F)cccc3c2O1 (centres undefined) , state the outcome it received in this test.
inactive

Given `O=C(CI)NC(=O)NC(=O)NCc1ccccc1` , state the outcome it received in this test.
inactive

Given `O=C(Cn1nnc2ccccc21)N/N=C/c1c[nH]c2ccccc12` , state the outcome it received in this test.
inactive

Given `CCCCCCCCCCCCCOC(=O)c1c(C)[nH]c(/C=C2\N=C(c3ccc[nH]3)C=C2OC)c1C` , state the outcome it received in this test.
inactive

Given `CCCCCCCCCCCCCCCCCCOc1ccccc1CC(=O)NCC[N+]1(C)CCCCC1` , state the outcome it received in this test.
inactive

Given `O=C(Cc1ccc(NC(=O)c2cccc(Cl)c2)cc1)NCc1ccccc1` , state the outcome it received in this test.
inactive

Given `COc1cccc(/C=N/NC(=O)c2ccccc2N2CCCC2)c1O` , state the outcome it received in this test.
inactive

Given `O=C(CC(=O)Nc1cccc(C(=O)O)c1)Nc1cccc(C(=O)O)c1` , state the outcome it received in this test.
inactive

Given `Cc1ncc(C(=O)Nc2ccc(CN3CCN(C)CC3)c(C(F)(F)F)c2)cc1C#Cc1cnc(N)c2ncccc12` , state the outcome it received in this test.
active

Given `CC1(C)CC[C@]2(C(=O)N[C@H](CO)Cc3ccccc3)CC[C@]3(C)C(=CC[C@@H]4[C@@]5(C)CCCNC(C)(C)[C@@H]5CC[C@]43C)[C@@H]2C1` , state the outcome it received in this test.
inactive

----------
System: OVCAR-3 ovarian
PROCEDURE_DETAILS: NCI-60 one-dose screen, 48 h (100 = growth as untreated, 0 = no growth, -100 = all killed)
CONDITION_DESCRIPTION: 10 µM unless noted
About 83,000 compounds went through this panel and 20% of them were active in at least one assay; those are over-represented in the sample as a whole.
METRIC: growth (%)
A number alone suffices; assume %.

Recorded growth, per entry:
>>> print(df.to_string())
                            compound_string  metric  measurement
0  O=C1c2cccc3cccc(c23)C(=O)N1C/C=C/c1ccc2c3c(cccc13)C(=O)N(CCO)C2=O  growth         87.9
1  O=c1ccc(=O)n(-c2nc(-c3ccc([N+](=O)[O-])cc3)cs2)[nH]1  growth          102
2        Cc1c2cccnc2c(C)c2c1c1cc(CO)ccc1n2C  growth         25.2

Supply reported growth belonging to this compound: `Cc1ccc(/C=C/C(=O)c2ccc(-n3cc(CN4CCN(c5cc6c(cc5F)c(=O)c(C(=O)O)cn6C5CC5)CC4)nn3)cc2)cc1`
96

Supply reported growth belonging to this compound: `COc1ccc2c(c1)c(-c1nc(-c3c[nH]c4ncccc34)cs1)cn2CCCN1CCOCC1`
44

Supply reported growth belonging to this compound: `COc1ccc(/C(C)=C(\c2ccc(Cl)cc2)c2ccc(OCCN3CCCCC3)cc2)cc1`
74.9

Supply reported growth belonging to this compound: `Oc1c(CN2CCCC2)cc(CSCc2ccccc2)c2cccnc12`
5.77

Supply reported growth belonging to this compound: `CCCCCCCCCCCCCOC(=O)c1c(C)[nH]c(/C=C2\N=C(c3ccc[nH]3)C=C2OC)c1C`
11.3

Supply reported growth belonging to this compound: `COc1cccc(/C=N/NC(=O)c2ccccc2N2CCCC2)c1O`
-4.45

Supply reported growth belonging to this compound: `CCNc1ccc(-c2nc3ccccc3n3cccc23)cc1`
78.7

----------
Below: a set of entries, each annotated with reported growth.
Test system: HCT-116 colon
PROCEDURE_DETAILS: NCI-60 one-dose screen, 48 h (100 = growth as untreated, 0 = no growth, -100 = all killed)
CONDITION_DESCRIPTION: 10 µM unless noted
Method: Growth inhibition of the HCT-116 human tumor cell line is measured as a screen for anti-cancer activity. Cells are grown in 96 well plates and exposed to the test compound for 48 hours. Compounds are tested at a single concentration, which is 10^-5 M for most compounds. The reported endpoint is percent growth (GI% or GIPRCNT), where numbers from 0 - 100% represent growth inhibition, and numbers from -100% - 0 represent cell death. For example, a value of 40 represents 60% growth inhibition. […]
This is part of a sample that, as a whole, favours compounds with a hit. Of some 83,000 tested, about 20% had one in any assay. Calls of active or inactive are those of the source. How the source made its calls: active means growth percent below 10; inactive means the rest.

Recorded growth, per entry:
COMPOUND	METRIC	MEASUREMENT
Cc1ccc(S(=O)(=O)OCCCOS(=O)(=O)c2ccc(C)cc2)cc1	growth	94.1% (inactive)
CCOC(=O)/C=C1\S/C(=N\Nc2cc(=O)[nH]c3ccccc23)N(c2ccccc2)C1=O	growth	98.5% (inactive)
CC1=C(C(=O)Nc2ccccc2)C(c2ccc3c(c2)OCO3)NC(=S)N1 (centres undefined)	growth	93.2% (inactive)
Fc1ccc(Cn2cc(CSc3nc4ccccc4o3)nn2)cc1	growth	92.3% (inactive)
COc1cc(NC(=O)c2cncnc2Nc2ccc3c(ccn3Cc3ccccn3)c2)cc(OC)c1	growth	18.2% (inactive)
C[C@]1(O)CC(=O)[C@]2(O)C3=C(C=C[C@]2(O)C1)C(=O)c1c(O)cccc1C3=O	growth	-32.1% (active)
O=C1c2cccc3cccc(c23)C(=O)N1C/C=C/c1ccc2c3c(cccc13)C(=O)N(CCO)C2=O	growth	76% (inactive)
CN(C)S(=O)(=O)Oc1ccc(-c2sc3cc(OS(=O)(=O)N(C)C)ccc3c2C(=O)c2ccc(OCCN3CCCCC3)cc2)cc1	growth	40.8% (inactive)
CCCCNC(=O)Oc1ccc(/C(=C(/C)Cc2ccc(OC)cc2)c2ccc(OCCN3CCCCCC3)cc2)cc1	growth	54.9% (inactive)
Nc1ccc(-c2csc(-n3[nH]c(=O)ccc3=O)n2)cc1	growth	94% (inactive)

Supply reported growth belonging to this compound: `O=C(Nc1cnc(Nc2ccc(N3CCOCC3)nc2)nc1Oc1ccc(C(F)(F)F)cc1)c1ccncc1`
61.9% (inactive)

Supply reported growth belonging to this compound: `COC(=O)CC[C@@H]1O[C@@H](c2ccc(F)cc2)[C@@H](O)[C@H]1O`
89.3% (inactive)

Supply reported growth belonging to this compound: `c1nc2ccc(-c3cc4ccc5[nH]ncc5c4c4c3CCCC4)cc2[nH]1`
7.07% (active)

Supply reported growth belonging to this compound: `O=C(Nc1ncccc1OCc1ccccc1)NC1CCCCCC1`
58.2% (inactive)

Supply reported growth belonging to this compound: Nc1nc2c(c3ncccc13)C(c1cccc(Cl)c1)Cc1ncccc1-2 (centres undefined)
24.4% (inactive)
